Cited source for all entries: paper PMC10949855

Test: Pharmacokinetics of butorphanol in plasma
Conditions: both, Beagle, dog, in vivo, iv, 0.4 mg/kg, Cl, IV bolus 0.4 mg/kg IV; geometric mean, n=6
readout name: clearance (mL/min/kg)

>>> experimental_value("Oc1ccc2c(c1)[C@@]13CCCC[C@@]1(O)[C@@H](C2)N(CC1CCC1)CC3")
46.5

---

Experiment: Pharmacokinetics of butorphanol in plasma
Settings: both, Beagle, dog, in vivo, sc, 0.4 mg/kg, Λz, SC 0.4 mg/kg; geometric mean, n=6
readout name: k el (s⁻¹)

>>> experimental_value("Oc1ccc2c(c1)[C@@]13CCCC[C@@]1(O)[C@@H](C2)N(CC1CCC1)CC3")
0.000105
